biological target: T1, HLA-DR DRB1*0405 (human); test: radiolabeled-peptide inhibition, purified HLA-DR; details: remark: other sources report otherwise
T1 chain 1: not shown
T1 chain 2: not shown
readout-kind: IC50 (nM)
Please respond with the number in nM and leave the unit unwritten.

Answered cases to consult:
In [3]: df
Out[3]:
                        binder  readout_kind  units_symbol  value
0  GMSYLEDVRLVHRDL [9019.0002]          IC50            nM   4320
1  ITGYLYISAWPDSLP [9019.0050]          IC50            nM    8.5
2  HRDLAARNVLVKSPN [9019.0085]          IC50            nM  11200
3  SDVWSYGVTVWELMT [9019.0089]          IC50            nM   1900
4  AYVMAGVGSPYVSRL [9019.0077]          IC50            nM    596

Measured IC50 of ILLVVVLGVVFGILI [9019.0068] : 376

IC50 reading for CYGLGMEHLREVRAV [9019.0044] : 5120

Item: ISAVVGILLVVVLGV [9019.0067] | IC50: 447
